System: Mycobacteroides abscessus
procedure-text: Antimycobacterial activity against Mycobacterium abscessus ATCC 19977 assessed as reduction in bacterial growth by microplate Alamar blue assay
Type: functional
Param label: returns Criterion met when MIC < 0.6 µM, returns Criterion not met otherwise, including exact equality.

Worked cases, answers included:
C/C=C/C[C@@H]1NC(=O)[C@H](CC(C)C)N2C=C(C)C[C@@H](C2=O)N(C)C(=O)[C@H](C)NC(=O)[C@H](Cc2ccc(OC(=O)c3ccccc3)c([N+](=O)[O-])c2)NC(=O)[C@H](CC(C)C)N(C)C(=O)[C@H](Cc2cn(C(C)(C)[C@@H](CCl)OC(=O)c3ccccc3)c3ccccc23)NC1=O | Criterion not met
C/C=C/C[C@@H]1NC(=O)[C@H](CC(C)C)N2C=C(C)C[C@@H](C2=O)N(C)C(=O)[C@H](C)NC(=O)[C@H](Cc2ccc3c(c2)N=C(C)CC(C)(C)O3)NC(=O)[C@H](CC(C)C)N(C)C(=O)[C@H](Cc2cn(C(C)(C)[C@H](O)CCl)c3ccccc23)NC1=O | Criterion not met
C/C=C/C[C@@H]1NC(=O)[C@H](CC(C)C)N2C=C(C)C[C@@H](C2=O)N(C)C(=O)[C@H](C)NC(=O)[C@H](Cc2ccc(OC(C)=O)c([N+](=O)[O-])c2)NC(=O)[C@H](CC(C)C)N(C)C(=O)[C@H](Cc2cn(C(C)(C)[C@H](O)CCl)c3ccccc23)NC1=O | Criterion not met

Ask: Is it true that MIC reported for C/C=C/C[C@@H]1NC(=O)[C@H](CC(C)C)N2C(=O)[C@H](CC(C)[C@H]2OC)N(C)C(=O)[C@H](C)NC(=O)[C@H](Cc2ccc(OC(C)=O)c([N+](=O)[O-])c2)NC(=O)[C@H](CC(C)C)N(C)C(=O)[C@H](Cc2cn(C(C)(C)[C@H]3CO3)c3ccccc23)NC1=O (some centres not stated) is less than 0.6 µM?
Result: Criterion met

Ask: Is it true that MIC reported for C/C=C/C[C@@H]1NC(=O)[C@H](CC(C)C)N2C=C(C)C[C@@H](C2=O)N(C)C(=O)[C@H](C)NC(=O)[C@H](Cc2ccc(O)c([N+](=O)[O-])c2)NC(=O)[C@H](CC(C)C)N(C)C(=O)[C@H](Cc2cn(C(C)(C)[C@H]3CO3)c3ccccc23)NC1=O is less than 0.6 µM?
Result: Criterion met

Ask: Is it true that MIC reported for C/C=C/C[C@@H]1NC(=O)[C@H](CC(C)C)N2C(=O)[C@H](CC(C)[C@H]2O)N(C)C(=O)[C@H](C)NC(=O)[C@H](Cc2ccc(OC)c([N+](=O)[O-])c2)NC(=O)[C@H](CC(C)C)N(C)C(=O)[C@H](Cc2cn(C(C)(C)[C@H]3CO3)c3ccccc23)N(C)C1=O (some centres not stated) is less than 0.6 µM?
Result: Criterion met

Ask: Is it true that MIC reported for C/C=C/C[C@@H]1NC(=O)[C@H](CC(C)C)N2C(=O)[C@H](CC(C)[C@H]2O)N(C)C(=O)[C@H](C)NC(=O)[C@H](Cc2ccc(O)c([N+](=O)[O-])c2)NC(=O)[C@H](CC(C)C)N(C)C(=O)[C@H](Cc2cn(C(C)(C)[C@H]3CO3)c3ccccc23)NC1=O (mixture of isomers) is less than 0.6 µM?
Result: Criterion met
